Target: Acetylcholinesterase (Homo sapiens)
Sequence (P22303 whole entry): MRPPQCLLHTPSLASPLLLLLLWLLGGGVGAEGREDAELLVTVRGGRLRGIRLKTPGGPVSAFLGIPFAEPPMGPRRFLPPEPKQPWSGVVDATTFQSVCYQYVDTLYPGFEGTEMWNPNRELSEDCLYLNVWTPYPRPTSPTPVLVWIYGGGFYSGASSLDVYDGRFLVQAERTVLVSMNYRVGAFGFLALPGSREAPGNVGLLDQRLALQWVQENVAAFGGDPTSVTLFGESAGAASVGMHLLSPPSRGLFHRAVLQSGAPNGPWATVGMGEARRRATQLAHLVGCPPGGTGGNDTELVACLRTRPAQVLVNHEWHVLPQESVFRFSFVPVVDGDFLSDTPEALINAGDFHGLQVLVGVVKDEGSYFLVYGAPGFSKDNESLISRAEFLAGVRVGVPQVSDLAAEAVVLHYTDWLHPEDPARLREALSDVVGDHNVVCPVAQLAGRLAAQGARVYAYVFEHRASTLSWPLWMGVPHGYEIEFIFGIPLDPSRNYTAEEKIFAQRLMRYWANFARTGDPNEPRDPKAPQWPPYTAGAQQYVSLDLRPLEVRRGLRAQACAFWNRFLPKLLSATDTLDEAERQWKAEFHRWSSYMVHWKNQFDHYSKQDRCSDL
Assay: Inhibition of human erythrocyte AChE at 10 uM using acetylthiocholine as substrate by Ellman's assay
Entry flag: criterion met if inhibition reaches 40%; criterion not met if it does not.

### Prompt Given O=C(c1cccc2ccccc12)n1nc(OCCN2CCCCC2)c2ccccc21 , state whether its inhibition is at least 40%.
### Response criterion not met

### Prompt Given the entry COc1ccc(CC(=O)n2nc(OCCCN3CCCCC3)c3ccccc32)cc1 , answer whether its inhibition meets or surpasses 40%.
### Response criterion met

### Prompt Is reported inhibition greater than or equal to 40% here: O=C(c1ccccc1OCc1ccccc1)n1nc(OCCCN2CCCCC2)c2ccccc21
### Response criterion not met

### Prompt Reported inhibition reaches at least 40% for O=C(c1ccc2ccccc2c1)n1nc(OCCN2CCCCC2)c2ccccc21 ?
### Response criterion met

### Prompt hey, is inhibition for this one >= 40%? O=C(c1cccc(Cl)c1F)n1nc(OCCCN2CCCCC2)c2ccccc21
### Response criterion met

### Prompt Decide: inhibition of O=C(c1cccc2ccccc12)n1nc(OCCCN2CCCC2)c2ccccc21 >= 40%?
### Response criterion not met

### Prompt // inclusive: inhibition at least 40%? input: O=C(c1ccc2ccccc2c1)n1nc(OCCCN2CCCCC2)c2ccccc21
### Response criterion not met

### Prompt Test whether the compound O=C(c1cccc2ccccc12)n1nc(OCCCN2CCCCC2)c2ccccc21 records inhibition of 40% or higher.
### Response criterion met

### Prompt // inclusive: inhibition at least 40%? input: COc1ccc(COc2nn(CCN(C(C)C)C(C)C)c3ccccc23)cc1
### Response criterion not met

### Prompt Assess whether reported inhibition for O=C(Cc1ccc(Cl)cc1)n1nc(OCCCN2CCCCC2)c2ccccc21 sits at 40% or higher.
### Response criterion met

* * *

Biological target: Beta-secretase 1 (Homo sapiens) (UniProt P56817)
Sequence (P56817 whole entry): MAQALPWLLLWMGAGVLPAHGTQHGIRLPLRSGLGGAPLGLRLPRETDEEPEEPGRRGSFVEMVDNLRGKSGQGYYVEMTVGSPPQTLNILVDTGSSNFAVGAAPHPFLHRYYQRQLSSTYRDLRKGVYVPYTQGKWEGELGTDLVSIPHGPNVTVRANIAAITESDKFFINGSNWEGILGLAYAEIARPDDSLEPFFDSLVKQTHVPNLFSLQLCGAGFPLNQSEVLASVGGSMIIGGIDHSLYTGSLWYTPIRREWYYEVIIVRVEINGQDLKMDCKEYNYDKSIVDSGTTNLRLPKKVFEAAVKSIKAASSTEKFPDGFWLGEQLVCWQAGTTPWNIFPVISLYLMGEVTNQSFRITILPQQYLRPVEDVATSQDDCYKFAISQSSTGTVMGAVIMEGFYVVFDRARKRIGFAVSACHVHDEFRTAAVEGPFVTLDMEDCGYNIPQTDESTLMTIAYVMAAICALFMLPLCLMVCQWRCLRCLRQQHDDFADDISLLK
Test: Inhibition of human BACE1 at 10 uM incubated for 60 mins using rhodamine-EVNLDAEFK-quencher substrate by FRET assay
Exercise: state measured inhibition for each of the compounds provided.
Enter your answer as a number in %; do not include the unit.

### Prompt Provide the documented inhibition with Beta-secretase 1 (Homo sapiens) (UniProt P56817) as the system for O=C(c1ccccc1OCc1ccccc1)n1nc(OCCN2CCCC2)c2ccccc21
### Response 32

### Prompt Recorded inhibition for O=C(c1cccc(Cl)c1Cl)n1nc(OCCCN2CCCCC2)c2ccccc21 with Beta-secretase 1 (Homo sapiens) (UniProt P56817), please?
### Response 45.1

### Prompt Notebook entry, Beta-secretase 1 (Homo sapiens) (UniProt P56817) assay: inhibition of Cc1cc(C)c(C(=O)n2nc(OCCN3CCCCC3)c3ccccc32)c(C)c1 = ?
### Response 12

### Prompt Recall the recorded inhibition for COc1ccc(CC(=O)n2nc(OCCN3CCCC3)c3ccccc32)cc1 with Beta-secretase 1 (Homo sapiens) (UniProt P56817) and state it.
### Response 17

### Prompt Test system Beta-secretase 1 (Homo sapiens) (UniProt P56817); read-out inhibition; what value for O=C(c1ccccc1Cl)n1nc(OCCN2CCCC2)c2ccccc21 ?
### Response 9

### Prompt Request: inhibition, test system Beta-secretase 1 (Homo sapiens) (UniProt P56817), entry O=C(c1cccc(Cl)c1F)n1nc(OCCCN2CCCCC2)c2ccccc21
### Response 34

### Prompt Form field - read-out: inhibition; system: Beta-secretase 1 (Homo sapiens) (UniProt P56817); submitted item: O=C(c1cccc2ccccc12)n1nc(OCCN2CCCCC2)c2ccccc21
### Response 11

### Prompt GET /values?readout=inhibition&system=Beta-secretase 1 (Homo sapiens) (UniProt P56817)&item= O=C(c1ccccc1OCc1ccccc1)n1nc(OCCCN2CCCCC2)c2ccccc21
### Response 38.4

### Prompt // fetch Beta-secretase 1 (Homo sapiens) (UniProt P56817) inhibition for O=C(c1cccc2ccccc12)n1nc(OCCCN2CCCCC2)c2ccccc21
### Response 42

### Prompt Which measured inhibition belongs to O=C(c1cccc(Cl)c1Cl)n1nc(OCCN2CCCC2)c2ccccc21 , tested on Beta-secretase 1 (Homo sapiens) (UniProt P56817)?
### Response 32.6
